- applied conditions: in n-propanol, 323.15 K
measurement kind: solubility (mole fraction)

[in] Write down solubility (mole fraction) measured for item "CC1(C)[C@@H](O)CC[C@]2(C)[C@H]3C(=O)C=C4[C@@H]5C[C@@](C)(C(=O)O)CC[C@]5(C)CC[C@@]4(C)[C@]3(C)CC[C@@H]12"
[out] 0.023

* * *

- applied conditions: in n-propanol, 278.15 K
measurement kind: solubility (mole fraction)
Respond with the number and no other words.

[in] Write down solubility (mole fraction) measured for item "CC1(C)[C@@H](O)CC[C@]2(C)[C@H]3C(=O)C=C4[C@@H]5C[C@@](C)(C(=O)O)CC[C@]5(C)CC[C@@]4(C)[C@]3(C)CC[C@@H]12"
[out] 0.0131

* * *

- applied conditions: in n-butyl acetate, 323.15 K
measurement kind: solubility (mole fraction)
Respond with the number and no other words.

[in] Write down solubility (mole fraction) measured for item "CC1(C)[C@@H](O)CC[C@]2(C)[C@H]3C(=O)C=C4[C@@H]5C[C@@](C)(C(=O)O)CC[C@]5(C)CC[C@@]4(C)[C@]3(C)CC[C@@H]12"
[out] 0.00364

* * *

- applied conditions: in ethanol, 318.15 K
measurement kind: solubility (mole fraction)
Respond with the number and no other words.

[in] Write down solubility (mole fraction) measured for item "CC1(C)[C@@H](O)CC[C@]2(C)[C@H]3C(=O)C=C4[C@@H]5C[C@@](C)(C(=O)O)CC[C@]5(C)CC[C@@]4(C)[C@]3(C)CC[C@@H]12"
[out] 0.0158

* * *

- applied conditions: in n-propanol, 318.15 K
measurement kind: solubility (mole fraction)
Respond with the number and no other words.

[in] Write down solubility (mole fraction) measured for item "CC1(C)[C@@H](O)CC[C@]2(C)[C@H]3C(=O)C=C4[C@@H]5C[C@@](C)(C(=O)O)CC[C@]5(C)CC[C@@]4(C)[C@]3(C)CC[C@@H]12"
[out] 0.0223

* * *

- applied conditions: in methyl acetate, 278.15 K
measurement kind: solubility (mole fraction)
Respond with the number and no other words.

[in] Write down solubility (mole fraction) measured for item "CC1(C)[C@@H](O)CC[C@]2(C)[C@H]3C(=O)C=C4[C@@H]5C[C@@](C)(C(=O)O)CC[C@]5(C)CC[C@@]4(C)[C@]3(C)CC[C@@H]12"
[out] 0.00182

* * *

- applied conditions: in isobutyl acetate, 323.15 K
measurement kind: solubility (mole fraction)
Respond with the number and no other words.

[in] Write down solubility (mole fraction) measured for item "CC1(C)[C@@H](O)CC[C@]2(C)[C@H]3C(=O)C=C4[C@@H]5C[C@@](C)(C(=O)O)CC[C@]5(C)CC[C@@]4(C)[C@]3(C)CC[C@@H]12"
[out] 0.00314

* * *

- applied conditions: in n-propyl acetate, 303.15 K
measurement kind: solubility (mole fraction)
Respond with the number and no other words.

[in] Write down solubility (mole fraction) measured for item "CC1(C)[C@@H](O)CC[C@]2(C)[C@H]3C(=O)C=C4[C@@H]5C[C@@](C)(C(=O)O)CC[C@]5(C)CC[C@@]4(C)[C@]3(C)CC[C@@H]12"
[out] 0.00245

* * *

- applied conditions: in isobutyl acetate, 278.15 K
measurement kind: solubility (mole fraction)
Respond with the number and no other words.

[in] Write down solubility (mole fraction) measured for item "CC1(C)[C@@H](O)CC[C@]2(C)[C@H]3C(=O)C=C4[C@@H]5C[C@@](C)(C(=O)O)CC[C@]5(C)CC[C@@]4(C)[C@]3(C)CC[C@@H]12"
[out] 0.00229

* * *

- applied conditions: in DMF, 308.15 K
measurement kind: solubility (mole fraction)
Respond with the number and no other words.

[in] Write down solubility (mole fraction) measured for item "CC1(C)[C@@H](O)CC[C@]2(C)[C@H]3C(=O)C=C4[C@@H]5C[C@@](C)(C(=O)O)CC[C@]5(C)CC[C@@]4(C)[C@]3(C)CC[C@@H]12"
[out] 0.0643

* * *

- applied conditions: in n-propanol, 308.15 K
measurement kind: solubility (mole fraction)
Respond with the number and no other words.

[in] Write down solubility (mole fraction) measured for item "CC1(C)[C@@H](O)CC[C@]2(C)[C@H]3C(=O)C=C4[C@@H]5C[C@@](C)(C(=O)O)CC[C@]5(C)CC[C@@]4(C)[C@]3(C)CC[C@@H]12"
[out] 0.0206

* * *

- applied conditions: in methyl acetate, 298.15 K
measurement kind: solubility (mole fraction)
Respond with the number and no other words.

[in] Write down solubility (mole fraction) measured for item "CC1(C)[C@@H](O)CC[C@]2(C)[C@H]3C(=O)C=C4[C@@H]5C[C@@](C)(C(=O)O)CC[C@]5(C)CC[C@@]4(C)[C@]3(C)CC[C@@H]12"
[out] 0.00244

* * *

- applied conditions: in 1,4-dioxane, 298.15 K
measurement kind: solubility (mole fraction)
Respond with the number and no other words.

[in] Write down solubility (mole fraction) measured for item "CC1(C)[C@@H](O)CC[C@]2(C)[C@H]3C(=O)C=C4[C@@H]5C[C@@](C)(C(=O)O)CC[C@]5(C)CC[C@@]4(C)[C@]3(C)CC[C@@H]12"
[out] 0.0297

* * *

- applied conditions: in ethanol, 278.15 K
measurement kind: solubility (mole fraction)
Respond with the number and no other words.

[in] Write down solubility (mole fraction) measured for item "CC1(C)[C@@H](O)CC[C@]2(C)[C@H]3C(=O)C=C4[C@@H]5C[C@@](C)(C(=O)O)CC[C@]5(C)CC[C@@]4(C)[C@]3(C)CC[C@@H]12"
[out] 0.0106

* * *

- applied conditions: in methyl acetate, 303.15 K
measurement kind: solubility (mole fraction)
Respond with the number and no other words.

[in] Write down solubility (mole fraction) measured for item "CC1(C)[C@@H](O)CC[C@]2(C)[C@H]3C(=O)C=C4[C@@H]5C[C@@](C)(C(=O)O)CC[C@]5(C)CC[C@@]4(C)[C@]3(C)CC[C@@H]12"
[out] 0.00259

* * *

- applied conditions: in n-propyl acetate, 288.15 K
measurement kind: solubility (mole fraction)
Respond with the number and no other words.

[in] Write down solubility (mole fraction) measured for item "CC1(C)[C@@H](O)CC[C@]2(C)[C@H]3C(=O)C=C4[C@@H]5C[C@@](C)(C(=O)O)CC[C@]5(C)CC[C@@]4(C)[C@]3(C)CC[C@@H]12"
[out] 0.00193

* * *

- applied conditions: in acetone, 278.15 K
measurement kind: solubility (mole fraction)
Respond with the number and no other words.

[in] Write down solubility (mole fraction) measured for item "CC1(C)[C@@H](O)CC[C@]2(C)[C@H]3C(=O)C=C4[C@@H]5C[C@@](C)(C(=O)O)CC[C@]5(C)CC[C@@]4(C)[C@]3(C)CC[C@@H]12"
[out] 0.00321

* * *

- applied conditions: in acetone, 308.15 K
measurement kind: solubility (mole fraction)
Respond with the number and no other words.

[in] Write down solubility (mole fraction) measured for item "CC1(C)[C@@H](O)CC[C@]2(C)[C@H]3C(=O)C=C4[C@@H]5C[C@@](C)(C(=O)O)CC[C@]5(C)CC[C@@]4(C)[C@]3(C)CC[C@@H]12"
[out] 0.00468

* * *

- applied conditions: in isobutyl acetate, 288.15 K
measurement kind: solubility (mole fraction)
Respond with the number and no other words.

[in] Write down solubility (mole fraction) measured for item "CC1(C)[C@@H](O)CC[C@]2(C)[C@H]3C(=O)C=C4[C@@H]5C[C@@](C)(C(=O)O)CC[C@]5(C)CC[C@@]4(C)[C@]3(C)CC[C@@H]12"
[out] 0.00239

* * *

- applied conditions: in isopropanol, 318.15 K
measurement kind: solubility (mole fraction)
Respond with the number and no other words.

[in] Write down solubility (mole fraction) measured for item "CC1(C)[C@@H](O)CC[C@]2(C)[C@H]3C(=O)C=C4[C@@H]5C[C@@](C)(C(=O)O)CC[C@]5(C)CC[C@@]4(C)[C@]3(C)CC[C@@H]12"
[out] 0.0164

* * *

- applied conditions: in methyl acetate, 283.15 K
measurement kind: solubility (mole fraction)
Respond with the number and no other words.

[in] Write down solubility (mole fraction) measured for item "CC1(C)[C@@H](O)CC[C@]2(C)[C@H]3C(=O)C=C4[C@@H]5C[C@@](C)(C(=O)O)CC[C@]5(C)CC[C@@]4(C)[C@]3(C)CC[C@@H]12"
[out] 0.00196

* * *

- applied conditions: in DMF, 323.15 K
measurement kind: solubility (mole fraction)

[in] Write down solubility (mole fraction) measured for item "CC1(C)[C@@H](O)CC[C@]2(C)[C@H]3C(=O)C=C4[C@@H]5C[C@@](C)(C(=O)O)CC[C@]5(C)CC[C@@]4(C)[C@]3(C)CC[C@@H]12"
[out] 0.0763

* * *

- applied conditions: in n-propyl acetate, 293.15 K
measurement kind: solubility (mole fraction)

[in] Write down solubility (mole fraction) measured for item "CC1(C)[C@@H](O)CC[C@]2(C)[C@H]3C(=O)C=C4[C@@H]5C[C@@](C)(C(=O)O)CC[C@]5(C)CC[C@@]4(C)[C@]3(C)CC[C@@H]12"
[out] 0.00211
